Source: the supplement of paper PMC10567573

B1: SCARA5 (parent)
chain: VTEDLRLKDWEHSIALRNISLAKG

- Variants of: B1
- assay-overview: protein stability index of a GFP-peptide fusion (GPS, HEK-293T) (PSI 1-6); higher = more stable;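 further: lentivirally expressed fusions sorted by FACS into six bins by GFP to DsRed ratio, PSI derived from sequencing read proportions per bin multiplied by bin number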
- measurement-context: c terminus: a fixed tail appended
Give protein stability index for every item shown.
Answers are plain numbers.

Here is how some variants turned out for protein stability index.
{"variant-notation": "H12C", "protein stability index": 2.62}
{"variant-notation": "E3Y", "protein stability index": 2.44}
{"variant-notation": "E11W", "protein stability index": 2.55}
{"variant-notation": "E11A", "protein stability index": 2.51}

For the 5 variants below, give their protein stability index values.
1. S20F
2. W10F
3. D4V
4. S13M
5. D4H

Result:
1: 3.17; 2: 3.12; 3: 2.81; 4: 2.81; 5: 3.43

For the 8 variants below, give their protein stability index values.
1. A15V
2. E11V
3. E3C
4. L21I
5. S13V
6. E3W
7. W10L
8. A22W

Result:
1: 2.34; 2: 1.8; 3: 2.25; 4: 3.19; 5: 3.37; 6: 1.58; 7: 3.55; 8: 2.16

For the 6 variants below, give their protein stability index values.
1. A22G
2. S20V
3. L16S
4. K23I
5. A22T
6. L21Y

Result:
[3.14, 3.56, 4.21, 2.36, 2.97, 3.48]

For the 4 variants below, give their protein stability index values.
1. K8H
2. I19M
3. W10R
4. N18H

Result:
1: 3.44; 2: 3.3; 3: 4.45; 4: 2.96

For the 6 variants below, give their protein stability index values.
1. D9E
2. T2A
3. A15P
4. S20H
5. H12Y
6. L16C

Result:
1: 3.17; 2: 3.21; 3: 3.54; 4: 3.04; 5: 2.76; 6: 3.37

For the 2 variants below, give their protein stability index values.
1. K23R
2. L16E

Result:
2.96
3.73

For the 5 variants below, give their protein stability index values.
1. I14M
2. I14Y
3. A15N
4. H12I
5. E3A

Result:
[3.4, 3.37, 3.42, 2.4, 1.74]

For the 7 variants below, give their protein stability index values.
1. D4R
2. N18E
3. I19C
4. E11L
5. K8R
6. R17Q
7. W10T

Result:
[3.16, 3.68, 4.27, 2.74, 3.11, 3.21, 4.26]

Task: Quote protein stability index reported for D4Y please.
Result: 2.01
